assay overview: self-splicing fitness, log relative to wild type (ln ratio); higher = more splicing; Tetrahymena group I intron in knt gene, E. coli kanamycin selection, DiMSum; sequences stand for … in CUCUCU…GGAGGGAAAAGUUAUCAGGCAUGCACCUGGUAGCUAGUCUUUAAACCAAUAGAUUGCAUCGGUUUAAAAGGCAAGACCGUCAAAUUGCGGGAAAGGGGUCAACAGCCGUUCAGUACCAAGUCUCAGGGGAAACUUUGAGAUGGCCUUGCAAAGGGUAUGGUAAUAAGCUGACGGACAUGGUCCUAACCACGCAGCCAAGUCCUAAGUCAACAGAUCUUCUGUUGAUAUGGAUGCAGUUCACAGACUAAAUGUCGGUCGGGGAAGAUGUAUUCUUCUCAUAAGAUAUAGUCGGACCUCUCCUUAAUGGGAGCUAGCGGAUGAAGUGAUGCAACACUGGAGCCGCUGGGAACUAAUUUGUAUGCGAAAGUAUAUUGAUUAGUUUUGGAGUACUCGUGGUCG;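 note: selection with 25 µg/mL kanamycin versus none on LB agar overnight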
conditions: 37 °C
measured parameter: self-splicing fitness (ln)

For the 7 sequences below, give their self-splicing fitness (ln) values.
1. GUAGAGCAAUAUUACGCUGG
2. GCGCAGCAAUAUUACGUCGU
3. GGACAGCAAUAUUACGAAAG
4. GGCCAGCAAUAUUACGGGCU
5. CCCGAGCAAUAUUACGGAGC
6. UGUAAGCAAUAUUACGAGCA
7. CUCCAGCAAUAUUACGUCGC

Ans:
1. -1.53
2. -2.75
3. -2.88
4. -3.16
5. -2.77
6. 0.404
7. -2.96

For the 4 sequences below, give their self-splicing fitness (ln) values.
1. GUAGAGCAAUAUUACGGGGC
2. UUAGAGCAAUAUUACGUGUA
3. CUGAAGCAAUAUUACGCUCA
4. UCCAAGCAAUAUUACGACGA

Ans:
-1.52
-1.83
-0.356
0.11

For the 4 sequences below, give their self-splicing fitness (ln) values.
1. GUUAAGCAAUAUUACGAAAG
2. CGUGAGCAAUAUUACGCUAG
3. CUACAGCAAUAUUACGCCCA
4. CCUAAGCAAUAUUACGGGGU

Ans:
1. -1.5
2. -1.47
3. -1.85
4. -2.82

For the 3 sequences below, give their self-splicing fitness (ln) values.
1. GCUAAGCAAUAUUACGAUUC
2. AACAAGCAAUAUUACGGGUG
3. UGACAGCAAUAUUACGGCGA

Ans:
[-0.128, -0.604, -0.382]

For the 3 sequences below, give their self-splicing fitness (ln) values.
1. UUCAAGCAAUAUUACGACUG
2. CUUCAGCAAUAUUACGCAGU
3. GUACAGCAAUAUUACGUUAG

Ans:
-1.33
-2.9
-1.74

For the 2 sequences below, give their self-splicing fitness (ln) values.
1. CUACAGCAAUAUUACGAAUU
2. AGCUAGCAAUAUUACGUCGA

Ans:
-2.94
-1.9

For the 6 sequences below, give their self-splicing fitness (ln) values.
1. CUUAAGCAAUAUUACGUGUC
2. CGUUAGCAAUAUUACGCCCU
3. UUGAAGCAAUAUUACGGCAU
4. AAUCAGCAAUAUUACGAAUC
5. UUUGAGCAAUAUUACGGUUG
6. CUACAGCAAUAUUACGACUA

Ans:
1: -1.8; 2: -0.204; 3: 1.08; 4: 0.372; 5: -0.702; 6: -2.38

For the 4 sequences below, give their self-splicing fitness (ln) values.
1. CGAAAGCAAUAUUACGUCAA
2. UACAAGCAAUAUUACGUCCA
3. CAUGAGCAAUAUUACGAAAG
4. UACGAGCAAUAUUACGGUAA

Ans:
[-2.11, -0.297, -1.18, -0.747]

Where do these numbers come from? They come from the supplement of paper PMC7877785.
